Reference source for all entries: PubChem BioAssay AID256

System: CD2F1 mice, L1210 leukemia ip, survival T/C
test.method.notes: NCI In Vivo Anticancer Drug Screen. Data for tumor model L1210 Leukemia (intraperitoneal) in CD2F1 (CDF1) mice
run.conditions: endpoint: mean survival time; dose: 100.0 mg/kg/injection; schedule: Q04DX003 (ip); vehicle: saline; higher = longer survival
Procedure: The antitumor activity of compounds was measured in mice bearing transplantable tumors. Survival or tumor size were measured and the results are expressed as the measurement made in the treated group (T) divided by the measurement made in the vehicle treated control group (C). The tumor model used in this assay is L1210 Leukemia (intraperitoneal) in CD2F1 (CDF1) mice
Inconclusive results and toxic doses are left out.

{"columns": ["compound", "T/C"],
 "data": [
  ["COC(=O)C(NC(C)=O)C(O)Cl (stereo unspecified)", "102 % of control"],
  ["CCCCCC(C)O[Si](C)OCC (stereo unspecified)", "96 % of control"],
  ["CC(C)N=C1C([O-])=N[N+](C)(C)N1C(C)C", "95 % of control"],
  ["CC1CC1C(=O)O (stereo unspecified)", "102 % of control"],
  ["C[N+]12CCN(CC1)CC2", "102 % of control"],
  ["Oc1c(Cl)c(Cl)c(Cl)c(Cl)c1Cl (tested in a mixture with another compound)", "96 % of control"],
  ["Clc1c(Cl)c(Cl)[c]([Hg][c]2c(Cl)c(Cl)c(Cl)c(Cl)c2Cl)c(Cl)c1Cl", "97 % of control"],
  ["Cc1nc(C)c(C(=O)O)cc1C(=O)O", "102 % of control"],
  ["COc1ccccc1C1C=CCCCC1 (stereo unspecified)", "95 % of control"],
  ["CCOc1ccc(C(=O)OC(CN(CC)CC)c2ccccc2)cc1 (stereo unspecified)", "89 % of control"],
  ["COc1cc2c(cc1OC)C(CCN)=NCC2", "97 % of control"],
  ["O=[N+]([O-])c1ccc(Cl)c(P(=O)(O)c2cc([N+](=O)[O-])ccc2Cl)c1", "101 % of control"],
  ["CCOC(=O)C(=O)C[n+]1cc2ccccc2cc1/C=N/O", "105 % of control"],
  ["CCCCCCCCCCCCSCCC(=O)O", "98 % of control"],
  ["CCOC(=O)c1cc2c3n(c1=O)CCCC3C(c1ccccn1)OC2=O (stereo unspecified)", "100 % of control"],
  ["CCCNC(=O)Nc1ccc(C(=O)OCC(C)C)cc1", "93 % of control"],
  ["COc1cc(NC2CCCCC2O)c2nc(-c3ccc(Cl)cc3)ccc2c1 (stereo unspecified)", "96 % of control"],
  ["CCCCCCOC(=O)C[n+]1ccc(C(N)=O)cc1", "101 % of control"],
  ["c1cc[n+](CC[n+]2ccccc2)cc1", "102 % of control"],
  ["CCOc1ccc2nc3cc(N)ccc3c(N)c2c1", "114 % of control"],
  ["Nc1ccc(Cl)cc1C(=O)c1ccc[nH]1", "94 % of control"],
  ["O=[N+]([O-])c1ccc(Cl)c(S(=O)O)c1", "110 % of control"],
  ["CC1(C)CC(O)CC(C)(C)N1O", "97 % of control"],
  ["COC(=O)C(N)CCCCNc1ccc2c(cc1=O)C(NC(C)=O)CCc1cc(OC)c(OC)c(OC)c1-2 (stereo unspecified)", "91 % of control"],
  ["CNP1(N(C)C)=NP(NC)(N(C)C)=NP(NC)(N(C)C)=N1 (stereo unspecified)", "98 % of control"],
  ["OC1CCC2CCCCC2C1 (stereo unspecified)", "98 % of control"]
]}
